Field: IC50 (anti-tumor activity). Provide a value for each of the molecules that follow.
- Test system: B16 melanoma cells
- test.method.notes: in vitro inhibitory activity on tumor cell growth, B16 melanoma cells (Test Example 2)
- Format: cell-based
- experimental.parameters: B16 mouse melanoma cells, 37° C., 3 days, 5% CO2; concentration for 50% growth inhibitory effect
Where a name gives a salt, the structure may show the parent alone.
Give bare numbers, in µg/mL.

Example entries begin here.
# molecule, experimental.endpoint, unit.abbreviation, recorded.result
data = [
    ("CN(C)CCCC(=O)Nc1cccc(-c2nc3cc(C(=O)Nc4ccc(N(CCCl)CCCl)cc4)ccc3[nH]2)c1 [Compound 2031, dihydrochloride]", "IC50 (anti-tumor activity)", "µg/mL", 1.56),
    ("CN(C)CCCNC(=O)c1ccc2[nH]c(-c3ccc(NC(=O)CCCc4ccc(N(CCCl)CCCl)cc4)cc3)nc2c1 [Compound 29]", "IC50 (anti-tumor activity)", "µg/mL", 3.05),
    ("O=C(CCN1CCOCC1)Nc1cccc(-c2nc3cc(C(=O)Nc4ccc(N(CCCl)CCCl)c(Cl)c4)ccc3[nH]2)c1 [Compound 2054, hydrochloride]", "IC50 (anti-tumor activity)", "µg/mL", 0.41),
]

# per-item lookup of IC50 (anti-tumor activity); items listed below
1. N=C(N)NCC(=O)Nc1cccc(-c2nc3cc(C(=O)Nc4ccc(N(CCCl)CCCl)cc4)ccc3[nH]2)c1 [Compound 2001, dihydrochloride]
2. N=C(N)CCNC(=O)c1ccc2[nH]c(-c3ccc(NC(=O)CCCc4ccc(N(CCCl)CCCl)cc4)cc3)nc2c1 [Compound 2, hydrochloride]
3. Cc1cc(NC(=O)c2ccc3[nH]c(-c4cccc(NC(=O)CC[S+](C)C)c4)nc3c2)ccc1N(CCCl)CCCl.[I-] [Compound 2044]

1. 0.82
2. 0.58
3. 0.72

# per-item lookup of IC50 (anti-tumor activity); items listed below
1. N=C(N)CCNC(=O)c1ccc2[nH]c(-c3cccc(NC(=O)CCCc4ccc(N(CCCl)CCCl)cc4)c3)nc2c1 [Compound 47, hydrochloride]
2. O=C(CCN1CCOCC1)Nc1cccc(-c2nc3cc(C(=O)Nc4ccc(N(CCCl)CCCl)cc4)ccc3[nH]2)c1 [Compound 2051, hydrochloride]
3. N=C(N)NCCCC(=O)Nc1cccc(-c2nc3cc(C(=O)Nc4ccc(N(CCCl)CCCl)cc4)ccc3[nH]2)c1 [Compound 2011, dihydrochloride]

1. 0.38
2. 0.49
3. 0.97

# per-item lookup of IC50 (anti-tumor activity); items listed below
1. C[S+](C)CCC(=O)Nc1cccc(-c2nc3cc(C(=O)Nc4ccc(N(CCCl)CCCl)c(Cl)c4)ccc3[nH]2)c1 [Compound 2046]
2. Cc1cc(NC(=O)c2ccc3[nH]c(-c4cccc(NC(=O)Cc5cccnc5)c4)nc3c2)ccc1N(CCCl)CCCl [Compound 2063]

1: 0.39; 2: 3.48

* * *

- Tested on: B16 melanoma cells
- test.method.notes: in vitro inhibitory activity on tumor cell growth, B16 melanoma cells (Test Example 2)
- Assay type: cell-based
- experimental.parameters: B16 mouse melanoma cells, 37° C., 3 days, 5% CO2; concentration for 50% growth inhibitory effect
Counter-ions that a name gives are not always drawn.
experimental.endpoint: IC50 (anti-tumor activity) (µg/mL)
Give bare numbers, in µg/mL.

Example entries begin here.
# compound, unit.abbreviation, recorded.result
data = [
    ("Cc1cc(NC(=O)c2ccc3[nH]c(-c4cccc(NC(=O)CNC(=N)N)c4)nc3c2)ccc1N(CCCl)CCCl [Compound 2004, dihydrochloride]", "µg/mL", 0.53),
    ("Cc1cc(NC(=O)c2ccc3[nH]c(-c4cccc(NC(=O)CCN5CCOCC5)c4)nc3c2)ccc1N(CCCl)CCCl [Compound 2053, hydrochloride]", "µg/mL", 0.33),
    ("Cc1cc(NC(=O)c2ccc3[nH]c(-c4cccc(NC(=O)CCCNC(=N)N)c4)nc3c2)ccc1N(CCCl)CCCl [Compound 2014, dihydrochloride]", "µg/mL", 1.18),
    ("C[S+](C)CCC(=O)Nc1cccc(-c2nc3cc(C(=O)Nc4ccc(N(CCCl)CCCl)cc4)ccc3[nH]2)c1 [Compound 2041]", "µg/mL", 0.37),
]

// below: IC50 (anti-tumor activity) requested for another compound
Report IC50 (anti-tumor activity) under test system B16 melanoma cells for N=C(N)NCC(=O)Nc1ccc(-c2nc3cc(C(=O)Nc4cccc(N(CCCl)CCCl)c4)ccc3[nH]2)cc1 [Compound 1010] . 3.19
